Reference for the values: paper PMC7951137

# test-system: human melanocortin-4 receptor (hMC4R), wild type, N-terminal FLAG-tagged (human, UniProt P32245 1-332)
# Sequence (P32245 whole entry): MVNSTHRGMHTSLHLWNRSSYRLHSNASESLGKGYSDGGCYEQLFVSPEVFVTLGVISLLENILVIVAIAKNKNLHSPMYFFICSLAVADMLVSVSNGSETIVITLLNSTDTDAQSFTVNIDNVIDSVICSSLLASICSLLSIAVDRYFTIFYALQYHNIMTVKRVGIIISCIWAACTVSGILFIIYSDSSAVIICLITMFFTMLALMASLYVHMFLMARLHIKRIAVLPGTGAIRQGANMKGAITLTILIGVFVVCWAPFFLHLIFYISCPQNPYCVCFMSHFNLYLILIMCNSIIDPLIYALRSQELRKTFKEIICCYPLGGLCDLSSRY
# protocol: radioligand binding
measured-property: pIC50
// pIC50 is dimensionless: -log10 of concentration (M)

# input Could you share which pIC50 value was measured for RCVRLHESCLGQQVPCCDPCATCYCRFFNAFCYCRKLGTAMNPCSRT (domain or fragment, UniProt O00253 86-132, looked up) [human agouti-related protein hAGRP(86–132)] ?
# output 7.92
